Test system: Vaccinia virus
ASSAY NOTES: microbe, parasite or virus in culture
Assay type: cell-based
COND: Orthopoxvirus vaccinia, HEL, read-out: EC50 Vaccinia Virus Lederle
QUANTITY: EC50 (µg/mL)
Response body: numeric value in µg/mL, unit text excluded.

Reference set (3 entries):
>  <COMPOUND>
Nc1ncn(C[C@H]2COP(=O)(O)CO2)c(=O)n1

>  <RESULT UNITS>
µg/mL

>  <EC50>
3.1

$$$$
>  <COMPOUND>
Nc1ncn(C[C@@H](CO)OCP(=O)(O)O)c(=O)n1

>  <RESULT UNITS>
µg/mL

>  <EC50>
1.7

$$$$
>  <COMPOUND>
Nc1ccn(C[C@@H](CO)OCP(=O)(O)O)c(=O)n1 [HPMPC, reference compound]

>  <RESULT UNITS>
µg/mL

>  <EC50>
2.43

$$$$

I'd like to know its EC50. The compound in question is NC(=NC(=O)NC[C@@H](CO)OCP(=O)(O)O)NC=O.[Na]
7.97
